# test.details: AUC (0 to infinity) in plasma of CD1 mouse at 40 mg/kg, po
# Assay type: ADME, organism-based
# Design: time infinity, dose 40 mg/kg, route oral
The following compounds are shown together with reported AUC(0-inf) values.

- sample.smiles: "O=[N+]([O-])c1cn2c(n1)OC[C@@H](OCCCC#Cc1ccc(OC(F)(F)F)cc1)C2"
  AUC(0-inf), ng·h/mL: 12600
- sample.smiles: "O=[N+]([O-])c1cn2c(n1)OC[C@@H](OCC#Cc1ccc(-c3ccc(OC(F)(F)F)cc3)cc1)C2"
  AUC(0-inf), ng·h/mL: 10000
- sample.smiles: "O=[N+]([O-])c1cn2c(n1)OC[C@@H](Oc1ccc(-c3ccc(OC(F)(F)F)cc3)cc1)C2"
  AUC(0-inf), ng·h/mL: 102000
- sample.smiles: "O=[N+]([O-])c1cn2c(n1)OC[C@@H](OCC#Cc1cccc(-c3ccc(OC(F)(F)F)cc3)c1)C2"
  AUC(0-inf), ng·h/mL: 35800
- sample.smiles: "O=[N+]([O-])c1cn2c(n1)OC[C@@H](OCCCc1ccc(-c3ccc(OC(F)(F)F)cc3)cc1)C2"
  AUC(0-inf), ng·h/mL: 13300

====

Below, each entry is listed alongside its reported Cmax.
# test.details: Cmax in plasma of CD1 mouse at 40 mg/kg, po
# Assay type: ADME, organism-based
# Parameters: dose 40 mg/kg, route oral

- sample.smiles: "O=[N+]([O-])c1cn2c(n1)OC[C@@H](OCCCc1ccc(-c3ccc(OC(F)(F)F)cc3)cc1)C2"
  Cmax / ng/mL: 990
- sample.smiles: "O=[N+]([O-])c1cn2c(n1)OC[C@@H](OCC#Cc1cccc(-c3ccc(OC(F)(F)F)cc3)c1)C2"
  Cmax / ng/mL: 1660
- sample.smiles: "O=[N+]([O-])c1cn2c(n1)OC[C@@H](Oc1ccc(-c3ccc(OC(F)(F)F)cc3)cc1)C2"
  Cmax / ng/mL: 1860
- sample.smiles: "O=[N+]([O-])c1cn2c(n1)OC[C@@H](OCC#Cc1ccc(-c3ccc(OC(F)(F)F)cc3)cc1)C2"
  Cmax / ng/mL: 570
- sample.smiles: "O=[N+]([O-])c1cn2c(n1)OC[C@@H](OCCCC#Cc1ccc(OC(F)(F)F)cc1)C2"
  Cmax / ng/mL: 2540

====

# System: Mycobacterium tuberculosis
# test.details: Antituberculosis activity against Mycobacterium tuberculosis H37Rv under anaerobic conditions by fluorescence based low-oxygen-recovery assay
# Assay type: functional
Entries whose MIC is below 4 µM take rule met; entries at or above 4 µM take rule not met.

- molecule: "O=[N+]([O-])c1cn2c(n1)OC[C@@H](OCC#Cc1cccc(-c3ccc(C(F)(F)F)cc3)c1)C2"
  class.label: "rule met"
- molecule: "O=[N+]([O-])c1cn2c(n1)OC[C@@H](Oc1ncc(-c3ccc(OC(F)(F)F)cc3)cn1)C2"
  class.label: "rule not met"
- molecule: "O=[N+]([O-])c1cn2c(n1)OC[C@@H](OCCCC#Cc1ccc(C(F)(F)F)nc1)C2"
  class.label: "rule not met"
- molecule: "CC(O[C@@H]1COc2nc([N+](=O)[O-])cn2C1)c1ccc(-c2ccc(C(F)(F)F)nc2)cc1 (stereo partly specified)"
  class.label: "rule not met"
- molecule: "O=[N+]([O-])c1cn2c(n1)OC[C@@H](OCC#Cc1ccc(-c3ccc(C(F)(F)F)nc3)nc1)C2"
  class.label: "rule met"
- molecule: "O=[N+]([O-])c1cn2c(n1)OC[C@@H](OCC#Cc1ccc(C(F)(F)F)nc1)C2"
  class.label: "rule not met"

====

# Test system: Mycobacterium tuberculosis
# test.details: Antituberculosis activity against Mycobacterium tuberculosis H37Rv under anaerobic conditions by fluorescence based low-oxygen-recovery assay
# Type: functional
readout.type: log10 of MIC (log10 of the value in µM)

- compound: "O=[N+]([O-])c1cn2c(n1)OC[C@@H](OCCOc1ccc(-c3ccc(C(F)(F)F)cc3)cn1)C2"
  measured.result: 0.48
- compound: "CC(O[C@@H]1COc2nc([N+](=O)[O-])cn2C1)c1ccc(OC(F)(F)F)cc1 (mixture of isomers)"
  measured.result: 0.89
- compound: "O=[N+]([O-])c1cn2c(n1)OC[C@@H](OCC#Cc1ccc(OC(F)(F)F)cc1)C2"
  measured.result: 0.53
- compound: "O=[N+]([O-])c1cn2c(n1)OC[C@@H](OCCOc1ccc(-c3ccc(F)cc3)cc1)C2"
  measured.result: 0.53
- compound: "O=[N+]([O-])c1cn2c(n1)OC[C@@H](OCCCc1ccc(-c3ccc(F)cc3)cc1)C2"
  measured.result: -0.04
- compound: "O=[N+]([O-])c1cn2c(n1)OC[C@@H](Oc1ncc(-c3ccc(C(F)(F)F)cc3)cn1)C2"
  measured.result: 0.48
- compound: "O=[N+]([O-])c1cn2c(n1)OC[C@@H](OCC#Cc1ccc(-c3ccc(OC(F)(F)F)cc3)cn1)C2"
  measured.result: -0.46
- compound: "O=[N+]([O-])c1cn2c(n1)OC[C@@H](OC/C=C/c1ccc(C(F)(F)F)nc1)C2"
  measured.result: 1.32
- compound: "O=[N+]([O-])c1cn2c(n1)OC[C@@H](OCCCc1ccc(OC(F)(F)F)cc1)C2"
  measured.result: 0.51
- compound: "O=[N+]([O-])c1cn2c(n1)OC[C@@H](OCCCc1ccc(-c3ccc(C(F)(F)F)nc3)cc1)C2"
  measured.result: 0.28
- compound: "O=[N+]([O-])c1cn2c(n1)OC[C@@H](OCCCc1ccc(C(F)(F)F)nc1)C2"
  measured.result: 1.08
- compound: "O=[N+]([O-])c1cn2c(n1)OC[C@@H](Oc1cccc(-c3ccc(C(F)(F)F)cc3)n1)C2"
  measured.result: 1.54
- compound: "O=[N+]([O-])c1cn2c(n1)OC[C@@H](OCc1ccc(C(F)(F)F)nc1)C2"
  measured.result: 1.70
- compound: "O=[N+]([O-])c1cn2c(n1)OC[C@@H](OC/C=C/c1ccc(C(F)(F)F)cn1)C2"
  measured.result: 0.58
- compound: "O=[N+]([O-])c1cn2c(n1)OC[C@@H](Oc1cccc(-c3ccc(OC(F)(F)F)cc3)n1)C2"
  measured.result: 0.52
- compound: "O=[N+]([O-])c1cn2c(n1)OC[C@@H](OCCCc1ccc(-c3ccc(C(F)(F)F)cn3)cc1)C2"
  measured.result: 0.48
- compound: "O=[N+]([O-])c1cn2c(n1)OC[C@@H](OCC#Cc1ccc(-c3ccc(OC(F)F)cc3)nc1)C2"
  measured.result: -0.21
- compound: "O=[N+]([O-])c1cn2c(n1)OC[C@@H](Oc1ccc(-c3ccc(F)cc3)nc1)C2"
  measured.result: 0.75
- compound: "O=[N+]([O-])c1cn2c(n1)OC[C@@H](OC/C=C/c1ccc(-c3ccc(F)cc3)cc1)C2"
  measured.result: 0.49
- compound: "O=[N+]([O-])c1cn2c(n1)OC[C@@H](Oc1ccc(-c3ccc(C(F)(F)F)cc3)cn1)C2"
  measured.result: 1.08
- compound: "O=[N+]([O-])c1cn2c(n1)OC[C@@H](Oc1ccc(-c3ccc(OC(F)(F)F)cc3)cn1)C2"
  measured.result: 1.08
- compound: "O=[N+]([O-])c1cn2c(n1)OC[C@@H](OCCOc1ncc(-c3ccc(C(F)(F)F)cc3)cn1)C2"
  measured.result: 0.73
- compound: "CC(O[C@@H]1COc2nc([N+](=O)[O-])cn2C1)c1ccc(-c2ccc(C(F)(F)F)cc2)cc1 (some centres undefined)"
  measured.result: 0.34
- compound: "O=[N+]([O-])c1cn2c(n1)OC[C@@H](OCc1ccc(OCc3ccccc3)cc1)C2"
  measured.result: 0.11
- compound: "O=[N+]([O-])c1cn2c(n1)OC[C@@H](OCCOc1ccc(-c3ccc(F)cc3)cn1)C2"
  measured.result: 0.38
- compound: "O=[N+]([O-])c1cn2c(n1)OC[C@@H](OCC#Cc1cccc(-c3ccc(OC(F)(F)F)cc3)c1)C2"
  measured.result: 0.11
- compound: "O=[N+]([O-])c1cn2c(n1)OC[C@@H](OCC#Cc1cccc(-c3ccc(F)cc3)c1)C2"
  measured.result: -0.06

====

# test.details: Metabolic stability in CD1 mouse liver microsomes at 1 uM measured as compound remaining after 1 hr by LC/MS/MS analysis
# Format: ADME, Microsome
# cond: read-out: Stability

- compound: "O=[N+]([O-])c1cn2c(n1)OC[C@@H](OCCCc1ccc(-c3ccc(OC(F)(F)F)cc3)cc1)C2"
  remaining at 1 h, 1 µM: "91%"
- compound: "CC(O[C@@H]1COc2nc([N+](=O)[O-])cn2C1)c1ccc(-c2ccc(OC(F)(F)F)cc2)cc1 (stereo partly drawn)"
  remaining at 1 h, 1 µM: "92%"
- compound: "O=[N+]([O-])c1cn2c(n1)OC[C@@H](OCC#Cc1cccc(-c3ccc(OC(F)(F)F)cc3)c1)C2"
  remaining at 1 h, 1 µM: "89%"
